test: Tmax in Sprague-Dawley rat at 2.5 mg/kg, iv by LC-MS/MS analysis; type: ADME, organism-based; conditions: in vivo
outcome_measure: Tmax

GET /values?readout=Tmax&item= `COc1ccn2nc(C)c(C(=O)NCc3ccc(-c4ccc(OC(F)(F)F)cc4)cn3)c2c1`
4.8 min
